Molecular target: Alpha-2A adrenergic receptor (Homo sapiens); also: assay procedure not described here
Sequence (P08913 whole entry): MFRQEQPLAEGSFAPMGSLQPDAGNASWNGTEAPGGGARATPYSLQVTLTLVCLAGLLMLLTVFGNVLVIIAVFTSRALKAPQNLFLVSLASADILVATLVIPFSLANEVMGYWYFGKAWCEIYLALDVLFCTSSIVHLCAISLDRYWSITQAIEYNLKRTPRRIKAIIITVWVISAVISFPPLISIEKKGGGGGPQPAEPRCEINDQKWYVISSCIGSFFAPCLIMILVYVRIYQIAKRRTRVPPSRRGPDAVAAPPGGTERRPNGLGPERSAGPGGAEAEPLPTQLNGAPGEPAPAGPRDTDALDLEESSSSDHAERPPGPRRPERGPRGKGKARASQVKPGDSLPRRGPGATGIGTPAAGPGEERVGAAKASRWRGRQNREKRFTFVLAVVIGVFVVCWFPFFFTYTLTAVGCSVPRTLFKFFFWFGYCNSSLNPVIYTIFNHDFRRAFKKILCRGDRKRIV
Format: functional, cell-based
REPORTED_METRIC: AC50

Please review the following examples before continuing.
| COMPOUND | TARGET_SYSTEM | AC50 |
| --- | --- | --- |
| O=c1oc2ccccc2c(O)c1Cc1c(O)c2ccccc2oc1=O | Alpha-2A adrenergic receptor (Homo sapiens) | > 10 µM |
| C=CC(N)CCC(=O)O (centres undefined) | Alpha-2A adrenergic receptor (Homo sapiens) | > 10 µM |
| CN(C)c1cc(NC(=O)CNC(C)(C)C)c(O)c2c1C[C@H]1C[C@H]3[C@H](N(C)C)C(O)=C(C(N)=O)C(=O)[C@@]3(O)C(O)=C1C2=O | Alpha-2A adrenergic receptor (Homo sapiens) | > 30 µM |
| CC#CCn1c(N2CCC[C@@H](N)C2)nc2c1c(=O)n(Cc1nc(C)c3ccccc3n1)c(=O)n2C | Alpha-2A adrenergic receptor (Homo sapiens) | > 10 µM |
| Nc1nc(F)nc2c1ncn2[C@@H]1O[C@H](COP(=O)(O)O)[C@@H](O)[C@@H]1O [FLUDARABINE PHOSPHATE] | Alpha-2A adrenergic receptor (Homo sapiens) | > 30 µM |

Dear colleague, I am looking for the recorded AC50 of the following compound: CCN(CC)CC(=O)Oc1ccc(NC(C)=O)cc1
> 30 µM

Could you share which AC50 value was measured for [H]/N=C(/N)N[C@H]1[C@H](O)[C@@H](O)[C@H](O[C@@H]2O[C@@H](C)[C@](O)(C=O)[C@H]2O[C@@H]2O[C@@H](CO)[C@H](O)[C@@H](O)[C@@H]2NC)[C@@H](N/C(N)=N\[H])[C@@H]1O ?
> 30 µM

What measured AC50 goes with C[n+]1ccccc1/C=N/O ?
> 30 µM

State the recorded AC50 for this entry: O=C(O)c1cc(O)c2c3nc4ccccc4oc-3cc(=O)c2n1
> 30 µM

###

Biological target: Gamma-aminobutyric acid receptor subunit alpha-1 (Rattus norvegicus); also: assay procedure not described here
Sequence (P62813 whole entry): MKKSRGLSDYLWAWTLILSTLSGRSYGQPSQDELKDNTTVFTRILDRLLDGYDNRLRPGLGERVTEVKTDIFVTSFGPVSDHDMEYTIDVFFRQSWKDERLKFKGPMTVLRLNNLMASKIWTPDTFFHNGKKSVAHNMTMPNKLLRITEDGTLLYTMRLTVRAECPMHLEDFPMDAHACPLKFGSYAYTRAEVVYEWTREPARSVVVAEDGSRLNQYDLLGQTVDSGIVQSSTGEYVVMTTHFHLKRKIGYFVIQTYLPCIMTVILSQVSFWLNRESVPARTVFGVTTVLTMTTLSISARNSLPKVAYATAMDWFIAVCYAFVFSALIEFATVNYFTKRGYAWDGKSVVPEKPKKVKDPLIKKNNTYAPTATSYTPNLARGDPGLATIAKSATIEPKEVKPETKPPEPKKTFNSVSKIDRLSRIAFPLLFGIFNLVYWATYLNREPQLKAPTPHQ
Format: functional
REPORTED_METRIC: AC50

# annotated cases, reported AC50 shown
| COMPOUND | AC50 |
| --- | --- |
| O=C(CCCN1CCC(n2c(O)nc3ccccc32)CC1)c1ccc(F)cc1 | > 30 µM |
| CCCCCCOC(=O)CCC(=O)CN [HEXAMINOLEVULINATE] | > 30 µM |
| CC(=O)O[C@H]1C[C@@H]2CC[C@@H]3[C@H](CC[C@@]4(C)[C@H]3C[C@H]([N+]3(C)CCCCC3)[C@@H]4OC(C)=O)[C@@]2(C)C[C@@H]1[N+]1(C)CCCCC1 | > 10 µM |
| CC[C@@H](CO)NC(=O)[C@@H]1C=C2c3cccc4[nH]cc(c34)C[C@H]2N(C)C1 | > 30 µM |

Now for another entry.
Fill blank: measured AC50 of the compound O=C1NC(=O)C(c2ccccc2)(c2ccccc2)N1 is ____.
> 30 µM

###

Parameter 'readout' = AC50; parameter 'system' = Alpha-1A adrenergic receptor (Homo sapiens). Also: assay procedure not described here.
Sequence (P35348 whole entry): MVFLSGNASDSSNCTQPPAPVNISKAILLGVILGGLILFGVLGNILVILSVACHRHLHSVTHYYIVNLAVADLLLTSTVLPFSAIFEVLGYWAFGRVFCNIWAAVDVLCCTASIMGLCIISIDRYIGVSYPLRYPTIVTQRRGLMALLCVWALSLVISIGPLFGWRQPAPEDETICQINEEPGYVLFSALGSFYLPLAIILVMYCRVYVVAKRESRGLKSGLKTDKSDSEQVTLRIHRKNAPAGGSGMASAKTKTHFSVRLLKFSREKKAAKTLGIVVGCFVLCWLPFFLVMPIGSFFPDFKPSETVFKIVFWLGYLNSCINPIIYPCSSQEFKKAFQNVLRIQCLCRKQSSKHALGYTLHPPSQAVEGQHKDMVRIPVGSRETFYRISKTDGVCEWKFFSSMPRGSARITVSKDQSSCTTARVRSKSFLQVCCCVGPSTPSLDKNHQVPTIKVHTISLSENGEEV

| MOLECULE | AC50 |
| --- | --- |
| CCCC(C)(COC(N)=O)COC(=O)NC(C)C (stereo not given) | 13.3 µM |
| COc1ccnc(C[S+]([O-])c2nc3ccc(OC(F)F)cc3[nH]2)c1OC (stereo not given) | 10.6 µM |
| COc1ccc2c(c1)[C@]13CCCC[C@@H]1[C@H](C2)N(C)CC3 | 3.58 µM |
| Cc1cccc(N(C)C(=S)Oc2ccc3ccccc3c2)c1 [TOLNAFTATE] | > 30 µM |

Shift focus to the following entry.
Tell me reported AC50 for CNCCCC1c2ccccc2C=Cc2ccccc21 , tested with Alpha-1A adrenergic receptor (Homo sapiens).
0.461 µM
